system: LB831-BLC (Bladder Carcinoma); experiment: combination Emax (second highest fraction inhibited in the dose matrix, 72 h); higher = more inhibition; extreme values may be limits of the assay
I'd be grateful if you could share measured combination Emax for these entries.

Could you report combination Emax for every entry in the following list?
1. Cc1c2c(nn1C)CSCc1cc(n(C)n1)CSc1cc(c3ccccc3c1)OCCCc1c(C(=O)O)n(C)c3c-2c(Cl)ccc13 [AZD5991] + CC1(C)CCC(CN2CCN(c3ccc(C(=O)NS(=O)(=O)c4ccc(NCC5CCOCC5)c([N+](=O)[O-])c4)c(Oc4cnc5[nH]ccc5c4)c3)CC2)=C(c2ccc(Cl)cc2)C1 [Venetoclax] (first compound max 1 µM, 7x7, partner max 1 µM)
2. COc1cccc(OCCCN)c1-c1cc(Nc2cnc(C#N)cn2)n[nH]1 [Prexasertib] + C=CCn1c(=O)c2cnc(Nc3ccc(N4CCN(C)CC4)cc3)nc2n1-c1cccc(C(C)(C)O)n1 [AZD1775] (first compound max 1 µM, partner max 1 µM)
3. Cc1c2c(nn1C)CSCc1cc(n(C)n1)CSc1cc(c3ccccc3c1)OCCCc1c(C(=O)O)n(C)c3c-2c(Cl)ccc13 [AZD5991] + Nc1ccn([C@@H]2O[C@H](CO)[C@@H](O)C2(F)F)c(=O)n1 [Gemcitabine] (first compound max 1 µM, 7x7, partner max 0.3 µM)

1: 0.439; 2: 0.836; 3: 0.677
